Data provenance is ChEMBL document CHEMBL1128248.

Measured Ki of individual entries
target-or-system: UniProt P19327
Sequence (P19327 whole entry): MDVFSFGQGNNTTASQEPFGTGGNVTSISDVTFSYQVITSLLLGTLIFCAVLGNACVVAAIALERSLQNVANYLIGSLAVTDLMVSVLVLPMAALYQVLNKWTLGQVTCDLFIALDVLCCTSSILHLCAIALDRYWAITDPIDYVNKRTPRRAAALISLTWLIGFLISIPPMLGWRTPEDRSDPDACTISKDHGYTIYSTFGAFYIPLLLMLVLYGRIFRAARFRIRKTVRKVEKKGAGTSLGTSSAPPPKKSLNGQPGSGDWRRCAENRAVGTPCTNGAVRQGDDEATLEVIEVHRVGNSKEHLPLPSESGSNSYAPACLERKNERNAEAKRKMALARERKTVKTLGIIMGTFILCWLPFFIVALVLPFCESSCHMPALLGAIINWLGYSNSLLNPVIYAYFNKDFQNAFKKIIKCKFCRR
assay-details: In vitro displacement of radioactively labeled ligand [3H]8-OH-DPAT from 5-hydroxytryptamine 1A receptor site in CHO cells
outcome-measure: Ki (nM)

>>> print(df.to_string())
                                 cpd_smiles  target_or_system  value_units  result_value
0   CC(C)=CCN1CC[C@H]2c3c(Br)cccc3CC[C@H]21    UniProt P19327           nM           266
1   CCCCN1CC[C@H]2c3c(cccc3C(N)=O)CC[C@H]21    UniProt P19327           nM            83
2  NC(=O)c1cccc2c1[C@@H]1CCN(CCCF)[C@@H]1CC2    UniProt P19327           nM           3.9
